details: in ethanol, 303 K
Reported Metric: solubility (mole fraction)
Write the number on its own, no unit after it.

// Cl.NCCCC[C@H](N)C(=O)O : solubility (mole fraction) value = 1.09e-05

###

conditions: in ethanol, 328.3 K
Reported Metric: solubility (mole fraction)
Answer field: number only, no words.

// solubility (mole fraction) lookup, compound = Cl.NCCCC[C@H](N)C(=O)O , result: 1.92e-05

###

details: in DMSO, 318.1 K
Reported Metric: solubility (mole fraction)
Keep the answer to the number alone.

Value of solubility (mole fraction) reported for the compound Cl.NCCCC[C@H](N)C(=O)O is 0.0516

###

conditions: in DMSO, 282.8 K
Reported Metric: solubility (mole fraction)
Would you mind answering with just the numeric figure?

Entry Cl.NCCCC[C@H](N)C(=O)O ; solubility (mole fraction) = 0.0179
